molecular target: T1, human BACE1 (R&D Systems) (human, UniProt P56817); test: SPR (Biacore)
T1 construct: recombinant, commercial (R&D Systems)
T1 sequence (P56817 22-457 limits assumed): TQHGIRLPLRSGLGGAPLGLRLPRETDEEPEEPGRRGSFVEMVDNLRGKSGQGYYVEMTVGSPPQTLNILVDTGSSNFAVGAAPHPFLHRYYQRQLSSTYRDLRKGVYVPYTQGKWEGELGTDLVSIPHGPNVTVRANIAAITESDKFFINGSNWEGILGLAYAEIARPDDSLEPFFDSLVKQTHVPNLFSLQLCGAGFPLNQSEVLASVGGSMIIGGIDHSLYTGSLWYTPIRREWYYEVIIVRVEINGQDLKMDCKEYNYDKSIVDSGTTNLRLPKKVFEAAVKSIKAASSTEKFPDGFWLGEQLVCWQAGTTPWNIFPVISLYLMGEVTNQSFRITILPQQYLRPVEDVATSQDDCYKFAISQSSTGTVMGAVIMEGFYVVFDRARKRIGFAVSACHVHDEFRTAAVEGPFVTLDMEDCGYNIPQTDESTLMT
Assay Endpoint: pKd
As a rule, pKd stands for the negative log10 of the concentration, concentration in M.

// known answers, use as guide
Binder	Data Value
6275 (antibody, V domains shown, anti-BACE1 IgG) VH: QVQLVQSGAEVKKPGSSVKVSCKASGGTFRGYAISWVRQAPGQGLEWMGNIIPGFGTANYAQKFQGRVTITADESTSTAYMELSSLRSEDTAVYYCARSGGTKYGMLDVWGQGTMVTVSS VL: EIVMTQSPATLSVSPGERATLSCRASQSVSSNLAWYQQKPGQAPRLLIYGASTRATGIPARFSGSGSGTEFTLTISSLQSEDFAVYYCQQLFLWPPRTFGGGTKVEIK	8.57
6290 (antibody, V domains shown, anti-BACE1 IgG) VH: QLQLQESGPGLVKPSETLSLTCTVSGGSISSSSYYWGWIRQPPGKGLEWIGMIYYSGSTWYNPSLKSRVTISVDTSKNQFSLKLSSVTAADTAVYYCARVGLGVSYFDLWGRGTLVTVSS VL: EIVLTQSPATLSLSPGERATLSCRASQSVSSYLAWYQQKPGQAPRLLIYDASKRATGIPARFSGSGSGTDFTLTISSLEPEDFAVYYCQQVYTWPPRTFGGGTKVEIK	8.50
6274 (antibody, V domains shown, anti-BACE1 IgG) VH: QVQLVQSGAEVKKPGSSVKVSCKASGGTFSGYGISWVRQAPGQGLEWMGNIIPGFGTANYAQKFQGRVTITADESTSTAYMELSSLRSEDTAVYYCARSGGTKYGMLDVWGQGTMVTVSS VL: EIVMTQSPATLSVSPGERATLSCRASQSVSSHLAWYQQKPGQAPRLLIYGASTRATGIPARFSGSGSGTEFTLTISSLQSEDFAVYYCQQLILWPPRTFGGGTKVEIK	8.38
6293 (antibody, V domains shown, anti-BACE1 IgG) VH: QLQLQESGPGLVKPSETLSLTCTVSGGSISSSSYYWGWIRQPPGKGLEWIGMIYYSGSTWYNPSLRSRVTISVDTSKNQFSLKLSSVTAADTAVYYCARVGHGVSYFDLWGRGTLVTVSS VL: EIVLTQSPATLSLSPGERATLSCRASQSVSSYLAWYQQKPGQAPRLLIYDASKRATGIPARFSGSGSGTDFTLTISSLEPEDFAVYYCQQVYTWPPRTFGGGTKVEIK	8.08
6288 (antibody, V domains shown, anti-BACE1 IgG) VH: QLQLQESGPGLVKPSETLSLTCTVSGGSTSSSSYYWGWIRQPPGKGLEWIGSIYRSGSTYYNPSLRSRVTISVDTSKNQFSLKLSSVTAADTAVYYCARVGHGISYFDLWGRGTLVTVSS VL: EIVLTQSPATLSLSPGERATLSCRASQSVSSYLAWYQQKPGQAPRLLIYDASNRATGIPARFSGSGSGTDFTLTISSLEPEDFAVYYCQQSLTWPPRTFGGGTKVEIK	8.32

IN: Using known records, supply pKd for 6289 (antibody, V domains shown, anti-BACE1 IgG) VH: QLQLQESGPGLVKPSETLSLTCTVSGGSISSSSYYWGWIRQPPGKGLEWIGSIYRSGSTYYNPSLRSRVTISVDTSKNQFSLKLSSVTAADTAVYYCVRVGHGISYFDLWGRGTLVTVSS VL: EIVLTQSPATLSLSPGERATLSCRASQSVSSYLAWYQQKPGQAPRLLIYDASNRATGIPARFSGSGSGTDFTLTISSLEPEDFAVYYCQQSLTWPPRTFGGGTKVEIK
OUT: 8.13

IN: # return recorded pKd for entry 6296 (antibody, V domains shown, anti-BACE1 IgG) VH: QLQLQESGPGLVKPSETLSLTCTVSGGSISSSSYYWGWIRQPPGKGLEWIGNIYYSGSTYYNPSLRGRVTISVDTSKNQFSLKLSSVTAADTAVYYCARLGHGYNYFDLWGRGTLVTVSS VL: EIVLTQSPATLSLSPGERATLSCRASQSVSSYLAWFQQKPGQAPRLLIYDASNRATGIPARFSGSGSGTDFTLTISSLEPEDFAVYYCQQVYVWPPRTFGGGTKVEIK
OUT: 8.48

IN: Identify measured pKd corresponding to 6270 (antibody, V domains shown, anti-BACE1 IgG) VH: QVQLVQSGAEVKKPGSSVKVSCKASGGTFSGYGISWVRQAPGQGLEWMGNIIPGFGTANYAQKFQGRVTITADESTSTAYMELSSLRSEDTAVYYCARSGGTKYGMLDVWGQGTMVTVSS VL: EIVMTQSPATLSVSPGERATLSCRASQSVSSNLAWYQQKPGQAPRLLIYGASTRATGIPARFSGSGSGTEFTLTISSLQSEDFAVYYCQQLLLWPPRTFGGGTKVEIK
OUT: 8.33

IN: Tell us which pKd value is on record for 6279 (antibody, V domains shown, anti-BACE1 IgG) VH: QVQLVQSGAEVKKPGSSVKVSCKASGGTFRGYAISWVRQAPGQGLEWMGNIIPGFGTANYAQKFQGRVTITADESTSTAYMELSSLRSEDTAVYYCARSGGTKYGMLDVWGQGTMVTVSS VL: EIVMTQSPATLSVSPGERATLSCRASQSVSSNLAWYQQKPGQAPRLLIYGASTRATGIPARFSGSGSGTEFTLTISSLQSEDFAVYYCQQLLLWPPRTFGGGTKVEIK
OUT: 8.68

IN: Hello, please tell me recorded pKd for this one: anti-BACE1 antibody 6266 (antibody, V domains shown, Fully human antibody) VH: EVQLVQSGAEVKKPGSSVKVSCKASGGTLSGYGVSWVRQAPGQGLEWMGNIIPGFGTANYAQKFQGRVTITADESTSTAYMELSSLRSEDTAVYYCARSGGTKYGMLDVWGQGTMVTVSS VL: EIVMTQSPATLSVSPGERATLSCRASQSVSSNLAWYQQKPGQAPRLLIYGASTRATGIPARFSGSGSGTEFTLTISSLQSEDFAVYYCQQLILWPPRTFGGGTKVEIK
OUT: 8.95

IN: Name the recorded pKd of the item 6299 (antibody, V domains shown, anti-BACE1 IgG) VH: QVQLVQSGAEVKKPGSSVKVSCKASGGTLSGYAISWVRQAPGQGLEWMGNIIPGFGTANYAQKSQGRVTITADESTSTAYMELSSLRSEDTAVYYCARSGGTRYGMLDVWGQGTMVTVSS VL: EIVMTQSPATLSVSPGERATLSCRASQSVGSNLAWYQQKPGQAPRLLIYGASTRATGIPARFSGSGSGTEFTLTISSLQSEDFAVYYCQQSYLWPPRTFGGGTKVEIK in your answer.
OUT: 8.24
